Data origin, for the record: ChEMBL document CHEMBL5058577

System: U2OS
Assay Overview: Multiplex assay against U2OS
Format: toxicity, cell-based
Condition Notes: human, 12 h, 10 µM, compound concentration 10 uM, replicate 1
Non-standard residues stand in square brackets, D forms with d. Residues, ends and D or L forms follow the SMILES beside them.
Recorded Metric: Population Pyknosed Nuclei (%)
Your answer is read as %, so omit the unit and give the number.

Example molecules with recorded Population Pyknosed Nuclei (%):
Molecule: CCC(=O)OCC(=O)[C@@]1(OC(=O)CC)[C@@H](C)C[C@H]2[C@@H]3CCC4=CC(=O)C=C[C@]4(C)[C@@]3(Cl)[C@@H](O)C[C@@]21C [BECLOMETHASONE DIPROPIONATE]
Tested System: U2OS
Unit Annotation: %
Population Pyknosed Nuclei (%): 17
//
Molecule: COc1cc2nc(N3CCN(C(=O)c4ccco4)CC3)nc(N)c2cc1OC.Cl [PRAZOSIN HYDROCHLORIDE]
Tested System: U2OS
Unit Annotation: %
Population Pyknosed Nuclei (%): 7
//
Molecule: COCCCN1CCC(NC(=O)c2cc(Cl)c(N)c3c2OCC3)CC1 [PRUCALOPRIDE]
Tested System: U2OS
Unit Annotation: %
Population Pyknosed Nuclei (%): 13

Short answer for `CN(C)C(=O)Cn1cc(-c2ccc(-c3nnc4ccccn34)cc2)cn1` : Population Pyknosed Nuclei (%) was 7

Short answer for `CC(C)C[C@H](CO)Nc1nc(S[C@@H](C)c2ccccc2)nc2nc(N)sc12` : Population Pyknosed Nuclei (%) was 22

Short answer for O=C(O)CCC/C=C\CC1C(O)CC(O)C1/C=C/C(O)COc1cccc(Cl)c1 (centres undefined) : Population Pyknosed Nuclei (%) was 10

Short answer for CC(C)C[C@@H]1NC(=O)[C@@H](C(C)C)NC(=O)[C@@H]2CCCN2C(=O)[C@@H](CC(=O)O)NC(=O)[C@@H](Cc2c[nH]c3ccccc23)NC1=O [BQ-123] (cyclo(L[dW][dD]P[dV])) : Population Pyknosed Nuclei (%) was 4

Short answer for `Cc1cc(NC(=O)NCCN2CCC(O)(Cc3ccccc3)CC2)c2ccccc2n1` : Population Pyknosed Nuclei (%) was 9

Short answer for `N[C@](CC1c2ccccc2Oc2ccccc21)(C(=O)O)[C@H]1C[C@@H]1C(=O)O` : Population Pyknosed Nuclei (%) was 8

Short answer for `C[C@H](NC(=O)CNC(=O)c1cccc(Cl)c1)c1ccccc1` : Population Pyknosed Nuclei (%) was 11

---

Tested on: HEK-293T
Assay Overview: Multiplex assay against HEK293T
Format: toxicity, cell-based
Condition Notes: human, 12 h, 1 µM, compound concentration 1 uM, replicate 2
# Population Hoechst High Intensity Objects (%) per entry
Your answer is read as %, so omit the unit and give the number.

Example compounds with recorded Population Hoechst High Intensity Objects (%):
Compound: N[C@](CC1c2ccccc2Oc2ccccc21)(C(=O)O)[C@H]1C[C@@H]1C(=O)O
Tested System: HEK-293T
Unit Annotation: %
Recorded Value: 5
--
Compound: Cc1cc(O)c(-c2ccc([C@@H](C)CN(C)C)cc2)c2c1[nH]c(=O)c1sccc12
Tested System: HEK-293T
Unit Annotation: %
Recorded Value: 28
--
Compound: COc1c(Nc2ccc(S(C)(=O)=O)nc2C)ncnc1OC1CCN(C(=O)OC(C)C)CC1
Tested System: HEK-293T
Unit Annotation: %
Recorded Value: 3

Short answer for `O=C(Nc1cc(-c2ccccc2)nn1-c1ccccc1F)c1ccc([N+](=O)[O-])cc1` : Population Hoechst High Intensity Objects (%) was 6

Short answer for `S=C(NCCCc1c[nH]cn1)NCCCN(Cc1ccc(Cl)c(Cl)c1)c1ccc(Br)cn1` : Population Hoechst High Intensity Objects (%) was 6

Short answer for `C[C@H](NC(=O)CNC(=O)c1cccc(Cl)c1)c1ccccc1` : Population Hoechst High Intensity Objects (%) was 4

Short answer for `CN1CCN(c2ccc(Nc3c4ccccc4nc4ccccc34)cc2)CC1.Cl.Cl.O` : Population Hoechst High Intensity Objects (%) was 1

Short answer for CN(C)C/C=C/C(=O)Nc1ccc(C(=O)N2CCCC(Nc3ncc(Cl)c(-c4c[nH]c5ccccc45)n3)C2)cc1 (centres undefined) : Population Hoechst High Intensity Objects (%) was 23

Short answer for `COc1ccc2[nH]c(I)c(CCNC(C)=O)c2c1` : Population Hoechst High Intensity Objects (%) was 7

Short answer for `CC(C)(O)C(=O)N1CCN(c2ccc(C(F)(F)F)c(C3=C(c4c[nH]c5ccccc45)C(=O)NC3=O)c2)CC1` : Population Hoechst High Intensity Objects (%) was 7

---

# Population Apoptotic (%) per entry
System: HEK-293T
Assay Overview: Multiplex assay against HEK293T
Assay type: toxicity, cell-based
Condition Notes: human, 24 h, 10 µM, compound concentration 10 uM, replicate 2
Your answer is read as %, so omit the unit and give the number.

Example molecules with recorded Population Apoptotic (%):
Molecule: CCCCC[C@H](O)/C=C/[C@H]1[C@H](O)CC(=O)[C@@H]1CCCCCCC(=O)O
Population Apoptotic (%): 36
--
Molecule: COCCn1c(C)c(C)s/c1=N\C(=O)C1C(C)(C)C1(C)C
Population Apoptotic (%): 45
--
Molecule: Cn1cc(C(=O)OCC2CCN(CCNS(C)(=O)=O)CC2)c2ccccc21
Population Apoptotic (%): 48

Short answer for `Cc1cc(=O)n(C)c2cc(N3C(=O)CC[C@H](NS(=O)(=O)CC(C)C)[C@H]3c3ccc(Cl)cc3)ccc12` : Population Apoptotic (%) was 76

Short answer for CCn1c(-c2nc3cc(C(=O)N4CCCC(N)C4)ccc3n2C)cc2ccccc21.Cl (configuration not stated) : Population Apoptotic (%) was 40

Short answer for `S=C(NCCCc1c[nH]cn1)NCCCN(Cc1ccc(Cl)c(Cl)c1)c1ccc(Br)cn1` : Population Apoptotic (%) was 82

Short answer for `COc1cc(C(=O)N2CC[C@@H](O)[C@@H](N)C2)cc2nc(-c3cc4ccccc4n3CC3CC3)n(C)c12.Cl` : Population Apoptotic (%) was 65

Short answer for Cc1ccc(OCC(O)C(C)NC(C)C)c2c1CCC2.Cl (configuration not stated) : Population Apoptotic (%) was 50

---

# Population Mitochondria Different-Phenotype (%) per entry
Test system: Fibroblast
Assay Overview: Multiplex assay against human fibroblast
Format: toxicity, cell-based
Condition Notes: 24 h, 1 µM, compound concentration 1 uM, replicate 2

Compound: CN1CCC(C(=O)c2cccc(NC(=O)c3c(F)cc(F)cc3F)n2)CC1
Recorded Value: 10%
--
Compound: COc1cc(OC2CCN(C(C)=O)CC2)ccc1C(=O)N1CCC(N2C(=O)OCc3ccccc32)CC1
Recorded Value: 3%
--
Compound: C[C@H](NC(=O)CNC(=O)c1cccc(Cl)c1)c1ccccc1
Recorded Value: 4%

Short answer for COc1c(Nc2ccc(S(C)(=O)=O)nc2C)ncnc1OC1CCN(C(=O)OC(C)C)CC1 [ADP-597] : Population Mitochondria Different-Phenotype (%) was 2%

Short answer for `CCc1nn2c(C)cc(C)nc2c1Cc1ccc(-c2nnc(C3CCNCC3)o2)cc1` : Population Mitochondria Different-Phenotype (%) was 15%

---

Test system: Fibroblast
Assay Overview: Multiplex assay against human fibroblast
Type: toxicity, cell-based
Condition Notes: 12 h, 1 µM, compound concentration 1 uM, replicate 2
Recorded Metric: Population Mitochondria Different-Phenotype (%)
Your answer is read as %, so omit the unit and give the number.

Compound: Cc1nn(C)c2nc(NNC(=O)Nc3cc(Cl)nc(Cl)c3)cc(C(C)C)c12
Recorded Value: 7
//
Compound: O=c1nc2[nH]c3ccccc3nc-2c(=O)[nH]1
Recorded Value: 3
//
Compound: CN1CCN(c2ccc(Nc3c4ccccc4nc4ccccc34)cc2)CC1.Cl.Cl.O
Recorded Value: 5
//
Compound: C[C@@H]1CC(=O)Nc2cccc(-c3ccc4c(c3)c(-c3cnn(C)c3)nn4C)c2N1
Recorded Value: 12
//
Compound: COc1cc2nc(N3CCN(C(=O)c4ccco4)CC3)nc(N)c2cc1OC.Cl [PRAZOSIN HYDROCHLORIDE]
Recorded Value: 7

Reported Fibroblast Population Mitochondria Different-Phenotype (%) for item CCC(=O)OCC(=O)[C@@]1(OC(=O)CC)[C@@H](C)C[C@H]2[C@@H]3CCC4=CC(=O)C=C[C@]4(C)[C@@]3(Cl)[C@@H](O)C[C@@]21C [BECLOMETHASONE DIPROPIONATE] was 10

Reported Fibroblast Population Mitochondria Different-Phenotype (%) for item `COc1cc2nc(N3CCN(C(=O)COc4c(OC)cccc4C(C)C)CC3)nc(N)c2cc1OC.Cl.Cl` was 7

Reported Fibroblast Population Mitochondria Different-Phenotype (%) for item `Cc1cc(NC(=O)NCCN2CCC(O)(Cc3ccccc3)CC2)c2ccccc2n1` was 13

Reported Fibroblast Population Mitochondria Different-Phenotype (%) for item `COC(c1ccccc1)(c1ccccc1)[C@H](Oc1nc(C)cc(C)n1)C(=O)O` was 6

Reported Fibroblast Population Mitochondria Different-Phenotype (%) for item CN(C)C/C=C/C(=O)Nc1ccc(C(=O)N2CCCC(Nc3ncc(Cl)c(-c4c[nH]c5ccccc45)n3)C2)cc1 (configuration not stated) was 13

Reported Fibroblast Population Mitochondria Different-Phenotype (%) for item `OCCCNc1cc(-c2ccnc(Nc3cccc(Cl)c3)n2)ccn1` was 13

Reported Fibroblast Population Mitochondria Different-Phenotype (%) for item `CCCCCCNC(=O)Nc1ccc(S(=O)(=O)Nc2ccc(CCNC[C@H](O)COc3ccc(O)cc3)cc2)cc1` was 3

Reported Fibroblast Population Mitochondria Different-Phenotype (%) for item `COc1cc(Nc2ncc3c(n2)-c2ccc(Cl)cc2C(c2c(F)cccc2OC)=NC3)ccc1C(=O)O` was 7

Reported Fibroblast Population Mitochondria Different-Phenotype (%) for item `COc1cc(OC2CCN(C(C)=O)CC2)ccc1C(=O)N1CCC(N2C(=O)OCc3ccccc32)CC1` was 3

Reported Fibroblast Population Mitochondria Different-Phenotype (%) for item `CSc1nc(NC2CCCC2)c([N+](=O)[O-])c(NC2CCCC2)n1` was 10

Reported Fibroblast Population Mitochondria Different-Phenotype (%) for item `O=C(Nc1cc(-c2ccccc2)nn1-c1ccccc1F)c1ccc([N+](=O)[O-])cc1` was 9

Reported Fibroblast Population Mitochondria Different-Phenotype (%) for item `Cc1c(Cc2ccc3ccccc3n2)c2cc(F)ccc2n1CC(=O)O` was 4
